# protocol: Half-life of compound at 22 degree Centigrade and pH 7.67 was determined
# Format: ADME
measuredQuantity: half-life (min)
Expressed in min, but write only the number.

Ask: Recorded half-life for `CN(CC#CCN1CCCC1=O)CCBr` , please?
Reply: 4.6

----------
# protocol: Half-life of compound at 22 degree Celsius and pH 7.29 was determined
# Format: ADME
measuredQuantity: half-life (min)
Lab book: enter the figure in min, no units written.

Ask: Value lookup for half-life; key = `CN(CC#CCN1CCCC1=O)CCBr`
Reply: 4.9

----------
# protocol: Half-life of compound at 22 degree Celsius and pH 6.25 was determined
# Assay type: ADME
measuredQuantity: half-life

Ask: Dear colleague, I am looking for the recorded half-life of the following molecule: `CN(CC#CCN1CCCC1=O)CCBr`
Reply: 6.1 min

----------
# protocol: Half-life of compound at 22 degree Celsius and pH 5.46 was determined
# Type: ADME
measuredQuantity: half-life (min)
Provide the reading as a plain figure in min.

Ask: Dear colleague, I am looking for the recorded half-life of the following molecule: `CN(CC#CCN1CCCC1=O)CCBr`
Reply: 10.2
